Reference source: paper PMC7826789

Test system: PRKR;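 note: KINOMEscan scanMAX binding as percent activity remaining versus control; lower means stronger binding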
Construct: gene EIF2AK2
assay setup: Compound Concentration (nM):1000
experimental endpoint: Percent Control
Include the unit right after the number.

// query Percent Control value for entry CCn1c(-c2nonc2N)nc2c(C#CC(C)(C)O)nc(OCCNC)cc21.Cl [GSK949675]
94%

// query Percent Control value for entry Cc1cc(O)cc(C)c1/C=C/c1cncc(C(N)=O)c1 [GW435821X]
94%

// query Percent Control value for entry COc1cccc(-n2ncc3c(N/N=C/c4ccncc4)ncnc32)c1 [GW784752X]
80%

// query Percent Control value for entry NS(=O)(=O)c1ccc(N/N=C2\C(=O)Nc3ccc(-c4cnco4)cc32)cc1 [GW276655]
54%

// query Percent Control value for entry NS(=O)(=O)c1ccc(N/N=C2\C(=O)Nc3ccc(C(=O)NCCc4c[nH]cn4)cc32)cc1 [GW300660X]
87%

// query Percent Control value for entry COc1cc(C)c(N(C)C(=O)CN(C)C)cc1Nc1nc(Nc2cccc(F)c2C(N)=O)c2cc[nH]c2n1 [GSK2219385]
100%

// query Percent Control value for entry O=C(Nc1n[nH]c2nc(-c3ccc(O)cc3)c(Br)cc12)C1CC1 [SB-725317]
59%

// query Percent Control value for entry CC1=C(C(=O)Nc2ccc3[nH]ncc3c2)C(c2ccc3ccccc3c2)CC(=O)N1 (stereo not shown) [GSK270822A]
89%

// query Percent Control value for entry Cl.O=C(O[C@H]1CN[C@H](C#Cc2cc3ncnc(Nc4ccc5c(cnn5Cc5ccccc5)c4)c3s2)C1)N1CCOCC1 [GSK200398A]
65%

// query Percent Control value for entry Nc1ncnc2occ(-c3ccc(NC(=O)Nc4cc(C(F)(F)F)ccc4F)cc3)c12 [GW770249X]
72%
